Examples of compounds with documented melting point follow.

compound | melting point [°C]
O[C@@H]1CCCC[C@H]1O | 102
CNC(=O)Oc1ccc2c(c1)[C@]1(C)CCN(C)OC1N2C (stereo partly drawn) | 129
CCC(O)(CC)CC | -12.5
c1ccc2c(c1)ccc1ccccc12 | 99.2
CC1CCC(C)CC1 (stereo not drawn) | -87
CCCCc1c(C)nc(N(C)C)nc1O | 102
NC(=O)Oc1ccc(Cc2ccccc2)cc1 | 148
CC(=O)NC(N)=O | 218

###

Form field: melting point (one value per entry).

compound | unit spec | melting point
BrCCOc1ccccc1 | °C | 39
Brc1ccc(Oc2ccc(Br)cc2)cc1 | °C | 60.5
Cc1cccc(N(C)C(=S)Oc2ccc3c(c2)C2CCC3C2)c1 (stereo not given) | °C | 93
OCCN(CCO)c1ccccc1 | °C | 57
N#CCCNc1ccccc1 | °C | 52.5
CC(C)=C(C)C(C)C | °C | -113
CCOC(=O)c1ccccc1C(=O)c1ccccc1 | °C | 59.5
Nc1ccc(Cl)cc1 | °C | 72.5
Cc1cc(C)cc(C)c1 | °C | -44.7
COc1cc(CCC(C)=O)ccc1O | °C | 40.5
COc1cc(Cl)ccc1O | °C | 16.5
CCCC(c1ccc(O)cc1)c1ccc(O)cc1 | °C | 137
CC(=O)O[C@@]12CO[C@@H]1C[C@H](O)[C@@]1(C)C(=O)[C@H](O)C3=C(C)[C@@H](OC(=O)[C@H](O)[C@@H](NC(=O)OC(C)(C)C)c4ccccc4)C[C@@](O)([C@@H](OC(=O)c4ccccc4)[C@H]21)C3(C)C | °C | 232
O=P(O)(c1ccccc1)c1ccccc1 | °C | 194
COc1c2c(cc3c1OCO3)CCN(C)C2 | °C | 56
Cc1nc(C)c(Cl)c(O)c1Cl | °C | 320
Fc1ccc2ccccc2c1 | °C | 61
O=C1C=Cc2cccc3cccc1c23 | °C | 154
CC(O)C#N (stereo not given) | °C | -40
O[C@@H]1CCc2ccccc2C1 | °C | 15.5
ClC(Br)Br | °C | -20
O=C(O)c1ccc(Cl)cc1[N+](=O)[O-] | °C | 144
CNC(=O)COC(=O)c1ccccc1 | °C | 112
CCOC(=O)c1ccc(C(=O)OCC)cc1 | °C | 44
O=C(Nc1ccc(Br)cc1)c1cc(Br)ccc1O | °C | 242
CC(CBr)c1ccccc1 (stereo not given) | °C | -59.3
CC(=O)Oc1cccc(C(=O)O)c1OC(C)=O | °C | 149
CCCCCCOC(=O)CCCC | °C | -63.1
Cc1cccc2c(C)cccc12 | °C | 82
Clc1ccc(Br)s1 | °C | -20
c1ccc(CSCc2ccccc2)cc1 | °C | 49.5
CC(C)c1ccccc1O | °C | 15.5
CC(Cl)(Cl)Cl | °C | -30.4
CC[C@H](C)C(=O)O[C@H]1CCC=C2C=C[C@H](C)[C@H](CC[C@@H]3C[C@@H](O)CC(=O)O3)[C@H]21 | °C | 152
CC(=O)c1ccc(C)s1 | °C | 27.5
Cc1ccnc(NS(=O)(=O)c2ccc(N)cc2)n1 | °C | 236
Nc1nc2nn[nH]c2c(=O)[nH]1 | °C | 300
C[Si](C)(C)O[Si](C)(C)O[Si](C)(C)O[Si](C)(C)O[Si](C)(C)O[Si](C)(C)O[Si](C)(C)C | °C | -78
CC(=O)O[Si](C)(C)OC(C)=O | °C | -12.5
Cc1cc(-c2ccccc2)ccc1N | °C | 43
CCCCOC(=O)c1ccccc1 | °C | -22.4
CCOC(=O)C(C)Oc1ccc(Oc2cnc3cc(Cl)ccc3n2)cc1 (stereo not given) | °C | 84.2
O=C(OCC(=O)N1CCC(O)CC1)c1ccccc1 | °C | 122
CC=CCCC=CC | °C | -76
C=CCl | °C | -154
COC(=O)C1(S(=O)(=O)c2ccc(Br)cc2)CCC1 | °C | 95
COC(=O)C1(S(=O)(=O)c2ccccc2)CC1 | °C | 74.5
Cc1c([N+](=O)[O-])cc(C(C)C)c(O)c1[N+](=O)[O-] | °C | 55.5
CCOc1ccc2ccccc2c1 | °C | 37.5
Cc1cc(N(CCO)CCO)ccc1N=Nc1ccc([N+](=O)[O-])cc1Cl | °C | 192

###

Friendly reminder: melting point below 70 °C is true (1), at or above is false (0).

compound | qualitative label
CN(C)c1cccc([N+](=O)[O-])c1 | true (1)
O=C1CCCCCCCCC1O (configuration not stated) | true (1)
O=C(c1ccccc1)c1c(F)c(F)c(F)c(F)c1F | true (1)
OCCOc1ccccc1 | true (1)
O=C(SSC(=O)c1ccccc1)c1ccccc1 | false (0)
O=C1CSC2(CCN(CCCN3c4ccccc4Sc4ccc(Cl)cc43)CC2)N1 | false (0)
CN(C)c1ccc(N=O)cc1 | false (0)
Cc1ccc2cccc(O)c2n1 | false (0)
BrCCCCCCCCCCCCBr | true (1)
COc1cc2nc(N3CCN(C(=O)C4CCCO4)CC3)nc(N)c2cc1OC (configuration not stated) | false (0)
C[C@]12C/C(=C/O)C(=O)C[C@@H]1CC[C@@H]1[C@@H]2CC[C@@]2(C)[C@H]1CC[C@]2(C)O | false (0)
CC(C)(O)C(=O)O | false (0)
CC(=O)CC(c1ccco1)c1c(O)c2ccccc2oc1=O (configuration not stated) | false (0)
CCN(Cc1ccc(Cl)nc1)C(=C[N+](=O)[O-])NC | false (0)
COC(=O)c1ccc(C)cc1 | true (1)
Nc1ccc(C(=O)Oc2ccccc2)c(O)c1 | false (0)
O=[N+]([O-])c1ccccc1CCl | true (1)
Clc1cc(Cl)cc(Cl)c1 | true (1)
CC(C)(Cl)Cl | true (1)
CCCCCCCCCCCCC#N | true (1)
CCCCCCCCCCCCCCCCCCCCCCCCCC | true (1)

###

Quick list: boiling point per entry.

compound | boiling point
C[Si](C)(C)C#C[Si](C)(C)C | 134 °C
CC(C)CCC(CO)C(C)C (centres undefined) | 211 °C
Cc1cccc2ccc(Cl)nc12 | 287 °C
COC(=O)c1ccccc1OC | 246 °C
CCC(CC1CCCCC1)CC1CCCCC1 | 306 °C
CN1[C@@H]2CCC[C@H]1CC2 | 166 °C
O=[N+]([O-])c1ccccc1CCO | 267 °C
Cc1cccc(C)c1N(C)C | 196 °C
CC(=O)Oc1ccc(C)c(C)c1 | 235 °C
Clc1ccccc1Cl | 180 °C
C#CC#C | 10.3 °C
CCCCCOC(=O)CCCCC | 226 °C
O=[N+]([O-])CCc1ccccc1 | 250 °C
Cc1ccc(CCC=O)cc1 | 223 °C
FC(F)(F)C(Cl)=C(Cl)C(F)(F)F | 68.5 °C
Cc1ccc(C(=O)c2ccc(C)cc2)cc1 | 334 °C
C=C(C)C1CCC=C(C)C1 (centres undefined) | 176 °C
C=CC(C)=CC | 77 °C
Cc1ccc2c(C)cccc2c1 | 264 °C
O=P(O)(O)CN(CP(=O)(O)O)CP(=O)(O)O | 480 °C
C[Si](C)(C)O[Si](C)(C)C | 99 °C
CCC(C)C(C)CC (centres undefined) | 118 °C
ClCc1ccc(Cl)cc1 | 223 °C
CCCCCCCCCCCCC#N | 293 °C

###

melting point reference

compound | melting point / °C
CCCCCCCCO | -15.5
C1CC2CC1C1OC21 (configuration not stated) | 123
O=C(c1ccccc1)c1ccccc1C(F)(F)F | 61
CCO[Si](Cl)(OCC)OCC | -51
CC(C)(C)c1ccc(C(C)(C)C)cc1 | 79.5
C=CCN=C(S)NCCO | 78
O=C(O)[C@H](O)[C@@H](O)C(=O)O (racemic) | 174
CCOc1ccccc1OS(=O)(=O)NC(O)=Nc1nc(OC)cc(OC)n1 | 145
Fc1ccc(N=C=S)cc1 | 27
Cc1cccc(OP(=O)(Oc2cccc(C)c2)Oc2cccc(C)c2)c1 | 25.5
CCOP(=S)(OCC)Oc1ccc([N+](=O)[O-])cc1 | 6.1
Clc1cccc2ccccc12 | -2.5

###

Let's look at some molecules and their measured boiling point.

molecule | unit spec | boiling point
CC(O)c1ccccc1 (configuration not stated) | °C | 205
CCN(C)c1ccccc1 | °C | 204
O=[N+]([O-])c1ccc(F)cc1 | °C | 205
CCCCCCCCOC=O | °C | 199
O=C(CCc1ccccc1)CCc1ccccc1 | °C | 352
NCC1CCNCC1 | °C | 200
CCCCCCCCCCCC#N | °C | 277
N#Cc1ccccc1N | °C | 263
CCCC(=O)c1ccc(C)cc1 | °C | 252
Cc1cccc(Cl)c1Cl | °C | 208
CCCCOCCOCCO | °C | 231
COCCOCCOCCOC | °C | 216
CCCC=C(C)C | °C | 95.4
Cl[Si](Cl)(Cl)c1ccccc1 | °C | 201
CCC(C)Cl (configuration not stated) | °C | 68
O=S(=O)(c1ccccc1)c1ccccc1 | °C | 279
Oc1nc2ccccc2s1 | °C | 360

Taken from the OPERA property sets (Mansouri et al. 2018).
